- System: Mus musculus
- method.notes: Antinociceptive response was determined in mice at a dose of 10 mg/kg using hot plate flick method
- Assay type: functional
Recorded ED50 values for a group of compounds are listed next.
measurement.name: ED50 (mg/kg)

* Nc1cccc(-c2cc(C3CC4CCC3N4)cnc2F)c1 (stereo unspecified) | 4
* Fc1ncc(C2CC3CCC2N3)cc1-c1ccccc1 (stereo in doubt; (-)-5a) | 10
* Fc1ccc(-c2cc(C3CC4CCC3N4)cnc2F)cc1 (stereo unspecified) | 15
* Nc1ccc(-c2cc(C3CC4CCC3N4)cnc2F)cc1 (stereo unspecified) | 10
* Fc1ncc(C2CC3CCC2N3)cc1-c1ccc(Cl)cc1 (stereo unspecified) | 7
* COc1ccc(-c2cc(C3CC4CCC3N4)cnc2F)cc1 (stereo unspecified) | 16
